# Test system: COLO 205
# ASSAY_METHOD_TEXT: Cytotoxicity against human Colo205 cells at 1 uM after 48 hrs
# Type: functional
# STATED_CONDITIONS: COLO 205, 48 h
MEASURED_PROPERTY: inhibition at 1 µM

// inhibition at 1 µM lookup, key: C[C@H]1[C@H](C)CC[C@]2(C)CC[C@]3(C)C(=CC[C@@H]4[C@@]5(C)CC[C@@H](O)[C@](C)(N)[C@@H]5CC[C@]43C)[C@H]12
30%

Please give the measured inhibition at 1 µM for this compound: C[C@H]1[C@H](C)CC[C@]2(C)CC[C@]3(C)C(=CC(=O)[C@@H]4[C@@]5(C)CC[C@@H](O)[C@](C)(N)[C@@H]5CC[C@]43C)[C@H]12
48%

Could you tell me which inhibition at 1 µM is on file for COc1cccc2c1C(=O)c1c(O)c3c(c(O)c1C2=O)C[C@@](O)(C(=O)CO)C[C@@H]3O[C@H]1C[C@H](N)[C@H](O)[C@H](C)O1 [DOXORUBICIN] ?
62%

What value of inhibition at 1 µM has been recorded for this entry: CC(=O)O[C@@H]1CC[C@]2(C)[C@H]3CC=C4[C@@H]5[C@@H](C)[C@H](C)CC[C@]5(C)CC[C@@]4(C)[C@]3(C)CC[C@H]2[C@@]1(C)N
34%
